B1: RAD54B (parent)
chain: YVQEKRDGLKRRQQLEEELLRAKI

Variants of: B1
assay details: protein stability index of a GFP-peptide fusion (GPS, HEK-293T) (PSI 1-6); higher = more stable;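 note: lentivirally expressed fusions sorted by FACS into six bins by GFP to DsRed ratio, PSI derived from sequencing read proportions per bin multiplied by bin number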
condition parameters: c terminus: a fixed tail appended
property name: protein stability index

mutation_descriptor=Q3N result=2.05
mutation_descriptor=A22G result=1.89
mutation_descriptor=A22Q result=2
mutation_descriptor=Q14K result=2.35
mutation_descriptor=L19R result=2.38
mutation_descriptor=R21I result=2.16
mutation_descriptor=I24Y result=1.74
mutation_descriptor=Q13V result=2.4
mutation_descriptor=I24Q result=2.22
mutation_descriptor=G8T result=1.74
mutation_descriptor=D7M result=1.79
mutation_descriptor=L15N result=2.05
mutation_descriptor=R21G result=2.09
mutation_descriptor=L15G result=1.75
mutation_descriptor=E17G result=2.35
mutation_descriptor=R6L result=2.46
mutation_descriptor=I24H result=2.38
mutation_descriptor=Y1C result=3.52
mutation_descriptor=R12G result=2.25
mutation_descriptor=G8Y result=2.12
mutation_descriptor=L9K result=1.98
mutation_descriptor=L20W result=2.08
mutation_descriptor=R12E result=2.34
mutation_descriptor=E4H result=1.6
mutation_descriptor=A22E result=2.92
mutation_descriptor=R12N result=2.41
mutation_descriptor=D7Q result=2.21
mutation_descriptor=K5F result=2.49
mutation_descriptor=I24S result=1.93
mutation_descriptor=L15T result=1.55
mutation_descriptor=K23A result=1.78
mutation_descriptor=Q14I result=1.76
mutation_descriptor=R6N result=2.31
mutation_descriptor=R6M result=2.12
mutation_descriptor=L20M result=1.78
mutation_descriptor=Q14Y result=2.25
mutation_descriptor=D7R result=2.37
mutation_descriptor=L15K result=2.05
mutation_descriptor=Q3V result=2.48
mutation_descriptor=K23G result=1.86
mutation_descriptor=V2S result=4.01
mutation_descriptor=L19A result=1.96
mutation_descriptor=K23C result=1.79
mutation_descriptor=L15Y result=2.44
mutation_descriptor=E18N result=1.96
mutation_descriptor=K5G result=1.91
